Biological target: 5-HT2A (Homo sapiens, UniProt P28223)
Sequence (P28223 whole entry): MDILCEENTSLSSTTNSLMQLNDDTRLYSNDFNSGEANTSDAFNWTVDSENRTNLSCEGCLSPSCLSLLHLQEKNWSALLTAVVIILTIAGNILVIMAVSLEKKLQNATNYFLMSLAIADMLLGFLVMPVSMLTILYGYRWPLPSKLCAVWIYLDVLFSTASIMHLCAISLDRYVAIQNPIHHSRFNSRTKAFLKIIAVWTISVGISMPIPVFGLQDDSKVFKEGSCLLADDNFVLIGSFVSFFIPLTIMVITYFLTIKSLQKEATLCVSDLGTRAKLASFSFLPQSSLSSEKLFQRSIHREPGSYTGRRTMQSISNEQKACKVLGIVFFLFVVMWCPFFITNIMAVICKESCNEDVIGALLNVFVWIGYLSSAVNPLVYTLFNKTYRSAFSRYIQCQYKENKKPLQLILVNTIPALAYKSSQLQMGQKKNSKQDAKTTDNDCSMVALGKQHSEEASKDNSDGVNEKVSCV
Assay: cell-based
Set-up: expressed in transfected cells; host or cells: HEK293T, transient
Settings: read-out: 5-HT2A Gq Emax (% 5-HT), BRET, mean ± SEM
Note to self: values exactly at 50% are True. So Emax at or above 50% is True, below is False.

Look over these answered cases.
| Molecule | Category Label |
| --- | --- |
| COc1cc([N+](=O)[O-])c(OC)cc1CCNCc1ccccc1 [25N-NB (2)] | True |
| COc1cc([N+](=O)[O-])c(OC)cc1CCNCc1cccc(C)c1 [25N-NB-3-Me (22)] | False |
| COc1cc(OC)c(OC)cc1CCNCc1cccc2c1CCC2 | False |

Input line: Is reported Emax greater than or equal to 50% here: COc1cc(OC)c(OC)cc1CCNCc1cccc(F)c1F
Output line: True

Input line: Threshold query (Emax >= 50%) on Brc1c2c(c(CCNCc3cccc4ccccc34)c3c1OCC3)OCC2
Output line: False

Input line: Does COc1cc(OC)c(OC)cc1CCNCc1cccc(C)c1C have a reported Emax of at least 50%?
Output line: False

Input line: Record COc1cc(Br)cc(OC)c1CCNCc1cccc2ccccc12 ; criterion: Emax no lower than 50%. Met?
Output line: False

Input line: Given COc1cc(OC)c(OC)cc1CCNCc1ccccc1-c1cccs1 , state whether its Emax is at least 50%.
Output line: False

Input line: Reported Emax reaches at least 50% for COc1cc([N+](=O)[O-])c(OC)cc1CCN [2C-N (1), reference compound] ?
Output line: True

Input line: Threshold query (Emax >= 50%) on COc1cc(OC)c(OC)cc1CCNCc1cccc(C)c1O
Output line: True

Input line: // inclusive: Emax at least 50%? input: COc1cc(CCNCc2cccc3ccccc23)ccc1Cl
Output line: False

Input line: Hi team, for COc1cc(Br)c(Br)c(OC)c1CCNCc1cccc2ccccc12 , is the recorded Emax at or above 50%?
Output line: False

Input line: Determine whether this molecule has Emax no lower than 50%: COc1cc([N+](=O)[O-])c(OC)cc1CCNCc1cccc2ccccc12 [25N-N-1-Nap (16)]
Output line: False

Input line: Does COc1cc(CCNCc2cccc(C)c2O)ccc1Cl have a reported Emax of at least 50%?
Output line: True

====

Target: 5-HT2A (Homo sapiens)
Assay: cell-based
Design: expressed in transfected cells; host or cells: HEK293T, transient
Conditions: read-out: 5-HT2A Gq Emax (% 5-HT), BRET, mean ± SEM
A collection of compounds and their measured Emax
Write the numeric value and append its unit.

Below, each entry is followed by its recorded Emax result.
| Entry Smiles | Emax |
| --- | --- |
| COc1cc(OC)c(OC)cc1CCNCc1ccccc1-c1ccco1 | 51.9% |
| COc1cc(OC)c(OC)cc1CCNCc1c[nH]nc1-c1ccccc1 | 31.8% |

Input line: Input COc1cc(Br)c(CCNCc2cccc3ccccc23)cc1OC , output reported Emax.
Output line: 32.3%

Input line: // Input: COc1cc(OC)c(OC)cc1CCNCc1ccccc1C1CC1 . Output its Emax only.
Output line: 97.5%

Input line: Tell me measured Emax for COc1cc(OC)c(OC)cc1CCNCc1cccc(OCc2ccccc2)c1 please.
Output line: 32.8%
